target-of-assay: Transient receptor potential cation channel subfamily V member 1 (Homo sapiens, UniProt Q8NER1)
Sequence (Q8NER1 whole entry): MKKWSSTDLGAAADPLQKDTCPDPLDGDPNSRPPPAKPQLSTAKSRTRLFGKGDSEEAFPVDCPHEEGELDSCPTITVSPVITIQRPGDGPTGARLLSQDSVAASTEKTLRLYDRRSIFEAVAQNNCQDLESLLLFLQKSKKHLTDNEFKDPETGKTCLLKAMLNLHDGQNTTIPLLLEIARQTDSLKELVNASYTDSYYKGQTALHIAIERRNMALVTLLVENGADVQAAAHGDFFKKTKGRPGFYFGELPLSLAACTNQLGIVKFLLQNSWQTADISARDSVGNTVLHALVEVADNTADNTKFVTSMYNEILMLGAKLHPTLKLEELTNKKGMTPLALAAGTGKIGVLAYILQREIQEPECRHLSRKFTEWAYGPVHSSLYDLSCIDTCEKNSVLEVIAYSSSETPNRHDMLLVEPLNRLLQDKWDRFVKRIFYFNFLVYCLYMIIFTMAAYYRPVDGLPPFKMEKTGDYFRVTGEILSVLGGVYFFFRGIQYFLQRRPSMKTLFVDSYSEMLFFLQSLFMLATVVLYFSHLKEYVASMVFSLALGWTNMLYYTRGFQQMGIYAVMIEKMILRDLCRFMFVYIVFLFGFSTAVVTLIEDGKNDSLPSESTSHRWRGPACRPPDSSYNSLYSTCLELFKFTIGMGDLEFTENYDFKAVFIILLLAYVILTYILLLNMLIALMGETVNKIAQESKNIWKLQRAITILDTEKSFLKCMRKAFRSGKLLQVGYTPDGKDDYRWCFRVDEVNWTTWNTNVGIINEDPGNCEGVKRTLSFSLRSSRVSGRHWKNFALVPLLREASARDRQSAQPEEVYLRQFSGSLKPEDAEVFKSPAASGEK
assay-protocol: Agonist activity at human TRPV1 expressed in CHO cells
Type: cell-based
condition-summary: filed as agonist
Activity calls are given as the source filed them. The rule behind the calls is not given here.
readout-kind: Activity

| compound | result |
| --- | --- |
| CC(C)(C)c1cc(CNC(=O)Cc2cccc(Cl)c2)n(-c2cccc(Cl)c2)n1 | Active |
| CC1CCN(c2nc(C(F)(F)F)ccc2CNC(=O)Cc2ccc(Cl)cc2)CC1 | Active |
| CC(C)(C)c1cc(CNC(=O)Cc2cccc(F)c2)n(-c2cccc(Cl)c2)n1 | Active |
| CC1CCN(c2nc(C(F)(F)F)ccc2CNC(=O)C(C)c2ccc(F)cc2)CC1 (stereo not given) | Active |
| CC(C(=O)NCc1cc(C(C)(C)C)nn1-c1cccc(Cl)c1)c1cccc(F)c1 (stereo not given) | Active |

The recorded Activity for CC1CCN(c2nc(C(F)(F)F)ccc2CNC(=O)C(C)c2cccc(F)c2)CC1 (stereo not given) is Active

The recorded Activity for CC(C(=O)NCc1cc(C(C)(C)C)nn1-c1cccc(Cl)c1)c1ccc(Cl)cc1Cl (stereo not given) is Active

The recorded Activity for CC(C(=O)NCc1cc(C(C)(C)C)nn1-c1cccc(Cl)c1)c1ccc(Cl)c(Cl)c1 (stereo not given) is Active

The recorded Activity for `CC(C)(C)c1cc(CNC(=O)Cc2ccc(F)c(F)c2)n(-c2cccc(Cl)c2)n1` is Active

The recorded Activity for `CC1CCN(c2nc(C(F)(F)F)ccc2CNC(=O)Cc2ccc(F)cc2F)CC1` is Active

###

target-of-assay: Transient receptor potential cation channel subfamily V member 1 (Homo sapiens)
assay-protocol: Partial agonist activity at human TRPV1 expressed in CHO cells
Assay type: cell-based
condition-summary: filed as partial agonist
Active and inactive are the calls of the source. No cut-off for these calls is given here.

| compound | target-of-assay | Activity |
| --- | --- | --- |
| CC(C(=O)NCc1cc(C(F)(F)F)nn1-c1cccc(Cl)c1)c1ccc(F)c(F)c1 (stereo not drawn) | Transient receptor potential cation channel subfamily V member 1 (Homo sapiens) | Active |
| CC1CCN(c2nc(C(F)(F)F)ccc2CNC(=O)C(C)c2ccc(F)cc2F)CC1 (stereo not drawn) | Transient receptor potential cation channel subfamily V member 1 (Homo sapiens) | Active |
| CC(C)(C)c1cc(CNC(=O)Cc2cc(F)cc(F)c2)n(-c2cccc(Cl)c2)n1 | Transient receptor potential cation channel subfamily V member 1 (Homo sapiens) | Active |

###

target-of-assay: Transient receptor potential cation channel subfamily V member 1 (Homo sapiens, UniProt Q8NER1)
assay-protocol: Antagonist activity at human TRPV1 expressed in CHO cells assessed as inhibition of capsaicin-induced TRPV1 activation by FLIPR method
Entries and their Ki
Express it in nM; write the number only.

Worked cases, Ki given:
| structure-as-smiles | display-unit | Ki |
| --- | --- | --- |
| CC1CCN(c2nc(C(F)(F)F)ccc2CNC(=O)Cc2c(F)cccc2Cl)CC1 | nM | 2.6 |
| CC1CCN(c2nc(C(F)(F)F)ccc2CNC(=O)Cc2ccc(Cl)cc2Cl)CC1 | nM | 46 |
| O=C(Cc1ccc(Cl)c(Cl)c1)NCc1cc(C(F)(F)F)nn1-c1cccc(Cl)c1 | nM | 3.8 |
| O=C(Cc1cc(F)cc(F)c1)NCc1cc(C(F)(F)F)nn1-c1cccc(Cl)c1 | nM | 13.7 |
| CC1CCN(c2nc(C(F)(F)F)ccc2CNC(=O)Cc2ccc(F)cc2Cl)CC1 | nM | 14.2 |

Continue with the next molecule.
The recorded Ki for `O=C(Cc1ccc(F)cc1Cl)NCc1cc(C(F)(F)F)nn1-c1cccc(Cl)c1` is 38.8

###

Entries and their Ki
target-of-assay: UniProt Q8NER1
assay-protocol: Antagonist activity at human TRPV1 expressed in CHO cells assessed as inhibition of capsaicin-induced TRPV1 activation by FLIPR method
Express it in nM; write the number only.

Worked cases, Ki given:
| structure-as-smiles | Ki, nM |
| --- | --- |
| O=C(Cc1cccc(F)c1F)NCc1cc(C(F)(F)F)nn1-c1cccc(Cl)c1 | 11.5 |
| CC1CCN(c2nc(C(F)(F)F)ccc2CNC(=O)Cc2cccc(Cl)c2Cl)CC1 | 4.9 |

The recorded Ki for `C[C@H](C(=O)NCc1cc(C(C)(C)C)nn1-c1cccc(Cl)c1)c1ccc(NS(C)(=O)=O)c(F)c1` is 0.3
